meta.source: ChEMBL document CHEMBL6153042

test: Cytotoxicity against human LX2 cells assessed as cell growth inhibition at 10 uM incubated for 48 hrs by CCK8 assay relative to control; format: toxicity, cell-based, LX-2; conditions: LX2 cells, read-out: GI
REPORTED_ENDPOINT: inhibition at 48 h, 10 µM

- COMPOUND: "CC(C)(C)C(=O)OCOP(=O)(COCCn1cnc2c(N)ncnc21)OCOC(=O)C(C)(C)C [ADEFOVIR DIPIVOXIL]"
  RESULT: "~30%"

Now take the following compound into account.
Data request, read-out inhibition at 48 h, 10 µM, for CC(C)OC(=O)OCOP(=O)(CO[C@H](C)Cn1cnc2c(N)ncnc21)OCOC(=O)OC(C)C.O=C(O)/C=C/C(=O)O [TENOFOVIR DISOPROXIL FUMARATE]
~30%
